Would you kindly list melting point for each of these molecules?

# count of solved cases: 2
1) COc1cc(OCC(CO)CO)c(/C=C/C(=O)c2ccc(S(N)(=O)=O)cc2)cc1-c1cccs1 = 123 to 124 °C
2) O=C(O)CNC(=O)Nc1ccc(C(=O)/C=C/c2ccc(-c3cccs3)cc2)cc1 = 222 to 225 °C

For every item below, please supply its melting point.
1. COc1cc(OC(C)(C)C(=O)O)c(-c2cccs2)cc1/C=C/C(=O)c1ccc(NS(C)(=O)=O)cc1
2. COc1cc(OCC2CC2)c(/C=C/C(=O)c2ccc(C(=O)O)cc2)cc1-c1cccs1
3. COc1cc(OCCC2CCCN2C)c(/C=C/C(=O)c2ccc(C(=O)O)cc2)cc1-c1cccs1.Cl (stereo not shown)
4. COc1cc(OCCN2CCOCC2)c(/C=C/C(=O)c2ccc(C(=O)O)cc2)cc1-c1cccs1.Cl
5. COc1cc(OC)c(-c2cccnc2)cc1/C=C/C(=O)c1ccc(S(N)(=O)=O)cc1
6. CSc1ccc(C(=O)/C=C/c2ccc(-c3cccs3)cc2)cc1

["181 to 183 °C", "187 to 191 °C", "206 to 208 °C", "255 °C (dec.)", "253 to 255 °C", "138 to 140 °C"]

For every item below, please supply its melting point.
1. O=C(/C=C/c1ccc(-c2cccs2)cc1)c1ccc(S)cc1
2. COc1cc(OC)c(-c2cccn2C(=O)OC(C)(C)C)cc1/C=C/C(=O)c1ccc(C(=O)O)cc1

1. > 110 °C (dec.)
2. 205 to 207 °C

For every item below, please supply its melting point.
1. O=C(O)c1ccc(/C=C/C(=O)c2ccc(-c3cccs3)cc2)cc1
2. COc1cc(OC)c(-c2c(C)noc2C)cc1/C=C/C(=O)c1ccc(C(=O)O)cc1
3. COc1cc(OC)c(-c2cc3ccccc3s2)cc1/C=C/C(=O)c1ccc(C(=O)[O-])cc1.[Na+]

1. 260 to 265 °C
2. > 260 °C
3. > 235 °C

For every item below, please supply its melting point.
1. COc1ncc(-c2cc(/C=C/C(=O)c3ccc(C(=O)O)cc3)c(OC)cc2OC)c(OC)n1
2. COc1cc(OCC(CO)CO)c(-c2cccs2)cc1/C=C/C(=O)c1ccc(C(=O)O)cc1
3. COc1cc(OCc2nnn[nH]2)c(/C=C/C(=O)c2ccc(S(N)(=O)=O)cc2)cc1-c1cccs1

1. 203 to 205 °C
2. 199 to 201 °C
3. 163 to 164 °C (dec.)

----------
Structures can show the parent of a compound that is named as a salt.
Would you kindly list melting point for each of these molecules?

# count of solved cases: 3
1) COc1cc(OC)c(-c2cc3ccccc3s2)cc1/C=C/C(=O)c1ccc(C(=O)O)cc1 (as salt: salt) [Example 120] = 75 to 80 °C
2) COc1ccc(/C=C/C(=O)c2ccc(C(=O)O)cc2)cc1-c1cccs1 [Example 41] = 219 to 220 °C
3) CCOC(=O)CNC(=O)N(C(=O)NCC(=O)OCC)c1ccc(C(=O)/C=C/c2cc(OC)c(OC)c(-c3cccs3)c2)cc1 [Example 16] = 83 to 86 °C

For every item below, please supply its melting point.
1. COc1cc(OC)c(-c2cc3ccccc3s2)cc1/C=C/C(=O)c1ccc(Nc2c(N)c(=O)c2=O)cc1 [Example 102]
2. COc1cc(-c2cccs2)ccc1C(=O)/C=C/c1ccc(C(=O)O)cc1 [Example 19]

1. > 260 °C
2. 193 to 195 °C

For every item below, please supply its melting point.
1. COc1cc(OCCN2CCOCC2)c(/C=C/C(=O)c2ccc(C(N)=O)cc2)cc1-c1cccs1 [Example 92]
2. O=C(O)c1ccc(C(=O)/C=C/c2ccc(-c3cccs3)cc2F)cc1 [Example 30]

1: 183 to 184 °C; 2: > 260 °C

For every item below, please supply its melting point.
1. COc1cc(/C=C/C(=O)c2ccc(C(=O)O)cc2)cc(-c2cccs2)c1OC [Example 8]
2. COc1cc(Oc2cccc(C)n2)c(/C=C/C(=O)c2ccc(S(N)(=O)=O)cc2)cc1-c1cccs1 [Example 122]
3. COc1cc(OCn2nnc3ccccc32)c(/C=C/C(=O)c2ccc(S(N)(=O)=O)cc2)cc1-c1cccs1 [Example 115]
4. COc1cc(OC)c(-c2nncn2CC(C)C)cc1/C=C/C(=O)c1ccc(S(N)(=O)=O)cc1 [Example 109]
5. COc1cc(OC)c(-c2nn[nH]n2)cc1/C=C/C(=O)c1ccc(C(=O)O)cc1 [Example 75]
6. COc1cc(/C=C/C(=O)c2ccc3c(c2)OC(CO)(CO)O3)cc(-c2cccs2)c1OC [Example 1]
7. COc1cc(OC)c(-c2cccs2)cc1/C=C/C(=O)c1cccc(C(=O)O)c1 [Example 43]

1: 231 °C; 2: 164 to 165 °C; 3: 255 °C (dec.); 4: > 240 °C; 5: 218 °C (dec.); 6: 74 to 80 °C; 7: 179 to 182 °C

For every item below, please supply its melting point.
1. COc1cc(OC)c(/C=C/C(=O)c2ccc(C(=O)O)cc2)c(-c2cccs2)c1 [Example 39]
2. COc1cc(OCc2nc3ccccc3[nH]2)c(/C=C/C(=O)c2ccc(S(N)(=O)=O)cc2)cc1-c1cccs1 [Example 113]
3. COc1cc(OC)c(-c2c[nH]c(C3CC3)n2)cc1/C=C/C(=O)c1ccc(C(=O)O)cc1.Cl [Example 105]
4. COc1cc(OCC(=O)N2CCOCC2)c(/C=C/C(=O)c2ccc(C(=O)O)cc2)cc1-c1cccs1 [Example 72]
5. COc1cc(/C=C/C(=O)c2ccc3[nH]ccc3c2)cc(-c2cccs2)c1OC [Example 27]
6. NS(=O)(=O)c1ccc(C(=O)/C=C/c2cccc(C3CC=CO3)c2)cc1 (centres unmarked) [Example 119]

1: 231 °C (dec.); 2: 235 to 237 °C (dec.); 3: > 240 °C; 4: 231 to 233 °C; 5: 184.5 to 186 °C; 6: 152 to 153 °C

For every item below, please supply its melting point.
1. COc1cc(OC(C)(C)C(=O)O)c(-c2cccs2)cc1/C=C/C(=O)c1ccc(N(C)S(C)(=O)=O)cc1 [Example 101]
2. COc1cc(OC)c(-c2cc3ccccc3s2)cc1/C=C/C(=O)c1ccc(C(=O)NC(C)=O)cc1 [Example 95]
3. COc1cc(OC)c(-c2cccs2)cc1/C=C/C(=O)c1ccc(-c2nn[nH]n2)cc1 [Example 78]
4. Nc1ccc(C(=O)/C=C/c2ccc(-c3cccs3)cc2)cc1 [Example 12]
5. COc1cc(OCc2c(C)noc2C)c(/C=C/C(=O)c2ccc(C(=O)O)cc2)cc1-c1cccs1 [Example 62]

["197 to 200 °C", "228 to 229 °C", "235 °C (dec.)", "185 to 187 °C", "213 to 215 °C"]

For every item below, please supply its melting point.
1. COc1cc(OC)c(-c2cc3ccccc3s2)cc1/C=C/C(=O)c1ccccc1C(=O)O [Example 7]
2. COc1cc(OC)c(-c2cc3ccccc3s2)cc1/C=C/C(=O)c1ccc(C(C)=O)cc1 [Example 108]
3. COc1cc(OC)c(-c2cncnc2)cc1/C=C/C(=O)c1ccc(C(=O)O)cc1 [Example 31]
4. COc1cc(-c2cccs2)cc(OC)c1/C=C/C(=O)c1ccc(C(=O)O)cc1 [Example 37]

1. 220 to 223 °C (dec.)
2. 165 to 167 °C
3. > 260 °C
4. 256 to 258 °C

For every item below, please supply its melting point.
1. COc1cc(OC)c(-c2nncn2CC(C)C)cc1/C=C/C(=O)c1ccc(C(=O)O)cc1 [Example 110]
2. COc1cc(OC)c(-c2cc3ccccc3n2C(=O)OC(C)(C)C)cc1/C=C/C(=O)c1ccc(S(N)(=O)=O)cc1 [Example 83]
3. COc1ccc(/C=C/C(=O)c2ccc(C(=O)O)cc2)c(OC)c1-c1cc2ccccc2s1 [Example 44]

1. > 240 °C (dec.)
2. 120 to 122 °C
3. 237 °C (dec.)

----------
Would you kindly list melting point for each of these molecules?

# count of solved cases: 3
1. COc1cc(OC)c(-c2cc3ccccc3s2)cc1/C=C/C(=O)c1ccc(C(=O)NCC(F)(F)F)cc1 = 215 to 217 °C
2. COc1ccc(/C=C/C(=O)c2ccccc2C(=O)O)cc1-c1cccs1 = 79 to 81 °C
3. COc1cc(OCC(=O)N(C)C)c(/C=C/C(=O)c2ccc(C(=O)O)cc2)cc1-c1cccs1 = 228 to 229 °C

Next molecule, melting point to be filled in.
# get_value(readout='melting point', item= COC(=O)c1ccc(C(=O)/C=C/c2cc(-c3cc4ccccc4s3)c(OC)cc2OC)cc1 )
149 to 151 °C
